target: eDHFR (Escherichia coli)
Sequence (P0ABQ4 whole entry): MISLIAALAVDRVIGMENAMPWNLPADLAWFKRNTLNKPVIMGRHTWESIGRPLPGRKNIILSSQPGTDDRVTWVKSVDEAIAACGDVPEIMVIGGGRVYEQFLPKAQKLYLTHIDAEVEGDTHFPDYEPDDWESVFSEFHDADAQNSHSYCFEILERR
Below, each of the compounds is paired with its reported pKd value.
The read-out pKd is expressed as -log10 of concentration in moles per litre.

Could you share which pKd value was measured for "CCN(CC)c1ccc2cc(C(=O)NCCOCCOC(=O)n3cnc(CC(=O)NCCCCCNC(=O)CCCCOc4c(OC)cc(Cc5cnc(N)nc5N)cc4OC)c3)c(=O)oc2c1" ?
6.26

Further cases:
Could you share which pKd value was measured for "CCN(CC)c1ccc2cc(C(=O)Oc3c(Br)cc(C(=O)NCCCCCNC(=O)CCCCOc4c(OC)cc(Cc5cnc(N)nc5N)cc4OC)cc3Br)c(=O)oc2c1" ?
6.24
